Values compiled from paper PMC6161179.

# Tested on: J774.1 murine macrophage cells
# method_summary: MTT cytotoxicity assay in J774.1 murine macrophages
# Assay type: cell-based
# experimental_context: compound at 100µM, 48 h
# Murine macrophages (grown %) annotations
reported_property: Murine macrophages (grown %)

C=CCn1c(C(=O)O)cs/c1=N\N=C\c1ccc(/C=N/N=c2\scc(C(=O)O)n2CC=C)cc1 98
CC(/C=N/N1CCSCC1)=C\c1ccco1 98
O=C1/C(=C/C=C/c2ccccc2)CC/C1=C\C=C\c1ccccc1 79
O=C(O)c1cs/c(=N/N=C/C=C/C=C/c2cccs2)n1-c1ccccc1 95

====

# target_under_test: FIV CA (p24) (Feline immunodeficiency virus)
# Construct: The FIV CA protein was expressed and purified mostly as described; made in house; host or cells: Escherichia coli BL21(DE3) pLysS
# method_summary: Microscale thermophoresis (MST) binding to CA
# experimental_context: 10 min, read-out: 10 min EC50
pEC50: −log10 of the molar value.
# pEC50 annotations
reported_property: pEC50

CC(/C=N/N1CCSCC1)=C\c1ccco1 3.92
C=CCn1c(C(=O)O)cs\c1=N/N=C/C=C/c1ccc(C)o1 3.19
C=CCn1c(C)cs\c1=N/N=C/C=C/c1cccs1 3.49
O=C(O)c1cs/c(=N/N=C/C=C/C=C/c2cccs2)n1-c1ccccc1 3.67
O=C1C(=Cc2ccc([N+](=O)[O-])cc2)C(=O)N(CCc2ccccc2)S(=O)(=O)N1CCc1ccccc1 2.96
C=CCn1c(C(=O)O)cs/c1=N\N=C\c1ccc(/C=N/N=c2\scc(C(=O)O)n2CC=C)cc1 3.18
Nc1ccc(S(=O)(=O)c2ccc(Nc3c([N+](=O)[O-])c(Nc4ccc(S(=O)(=O)c5ccc(N)cc5)cc4)c4no[n+]([O-])c4c3[N+](=O)[O-])cc2)cc1 3.49
O=C1/C(=C/C=C/c2ccccc2)CC/C1=C\C=C\c1ccccc1 3.41
C=CCN1C(=O)CS\C1=N/N=C/C=C/c1cccs1 3.62

====

# target_under_test: FIV CA (p24) (Feline immunodeficiency virus, UniProt P16087)
# Construct: The FIV CA protein was expressed and purified mostly as described; made in house; host or cells: Escherichia coli BL21(DE3) pLysS
# Sequence (P16087 136-357): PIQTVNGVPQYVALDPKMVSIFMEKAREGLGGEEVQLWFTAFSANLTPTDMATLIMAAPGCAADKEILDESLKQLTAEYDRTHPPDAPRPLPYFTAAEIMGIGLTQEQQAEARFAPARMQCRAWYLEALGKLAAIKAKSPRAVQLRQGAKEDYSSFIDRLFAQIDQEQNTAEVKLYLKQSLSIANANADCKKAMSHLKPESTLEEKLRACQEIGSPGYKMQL
# method_summary: Microscale thermophoresis (MST) binding to CA
# experimental_context: 1 h (60 min), read-out: 1h EC50
pEC50: −log10 of the molar value.
reported_property: pEC50

compound	readout_number
CC(/C=N/N1CCSCC1)=C\c1ccco1 [compound 878]	3.78
C=CCn1c(C(=O)O)cs/c1=N\N=C\c1ccc(/C=N/N=c2\scc(C(=O)O)n2CC=C)cc1 [compound 1310]	3.17
O=C(O)c1cs/c(=N/N=C/C=C/C=C/c2cccs2)n1-c1ccccc1 [compound 1136]	4.08
Nc1ccc(S(=O)(=O)c2ccc(Nc3c([N+](=O)[O-])c(Nc4ccc(S(=O)(=O)c5ccc(N)cc5)cc4)c4no[n+]([O-])c4c3[N+](=O)[O-])cc2)cc1 [compound 703]	3.14
C=CCn1c(C)cs\c1=N/N=C/C=C/c1cccs1 [compound 1128]	3.32
C=CCn1c(C(=O)O)cs\c1=N/N=C/C=C/c1ccc(C)o1 [compound 789]	3.18
O=C1/C(=C/C=C/c2ccccc2)CC/C1=C\C=C\c1ccccc1 [compound 1246]	3.62
C=CCN1C(=O)CS\C1=N/N=C/C=C/c1cccs1 [compound 1138]	3.74
C=CCNC(=S)N/N=C/c1ccc2c(c1)c1cc(/C=N/NC(=S)NCC=C)ccc1n2CC(CC)CCCC (stereo not shown) [compound 1368]	4.46
O=C1C(=Cc2ccc([N+](=O)[O-])cc2)C(=O)N(CCc2ccccc2)S(=O)(=O)N1CCc1ccccc1 [compound 110]	3.10
